These measurements were taken from a melting point compilation (Tetko et al.; mined from patent text by program, amines drawn as free bases though some values may be those of a salt).

Item-by-item account of melting point

Use these answered entries as a reference point.
CCCCCCC(C(=O)O)n1cc(Cc2ccccc2)c2cc(-c3ccccc3-c3nn[nH]n3)ccc21 (stereo not given): 108 to 112 °C
COC(=O)C(Oc1ccc(C(=O)CN2CCN(c3ccncc3)CC2)cc1)C(=O)OC: 115 to 116 °C
O=C(Oc1ccc(Oc2ccccc2)cc1)N1CCC(CO)CC1: 71 to 74 °C
O=C(NC1CCCCC1)c1cc2ccncc2[nH]1: 298 to 301 °C
O=C(NCCO)c1cccc(-c2cccc3nn(Cc4cccc(F)c4)cc23)c1: 187 to 188 °C

May I ask what melting point has been recorded for OC(c1ccccc1)(c1ccncc1)c1ccc(F)cc1 (stereo not given) ? 189 to 192 °C

Another compound: CCOC(=O)c1cc(=O)c2cc3c(c(CC(O)CO)c2o1)CCCC3 (stereo not given) 142 to 144 °C

Quick one: `COc1ccc(C(=O)c2c(F)cccc2F)cc1` 122 to 124 °C

Now the compound `O=C(CCC(=O)N1Cc2c(cc3ccc4c(c3c2-c2ccc3c(c2)OCO3)OCO4)C1=O)OCc1ccccc1` 128 to 129 °C

// same read-out, input: [O-][N+]1=C(c2ccccc2F)c2cc(Cl)ccc2NC(C(=NO)N2CCOCC2)C1 (stereo not given) 184 to 186 °C

###

melting point by entry:

Field: example entries. Status: answers known.
CC(=O)Nc1ccc(-c2ncc(C(=O)O)c(O)n2)cc1: > 310 °C
BrCCOc1ccc2[nH]c3ccccc3c2c1: 135 to 136 °C
CCC(=O)c1cccc(Oc2nc(OC)cc(OC)n2)c1C(=O)OC: 120 to 122 °C

Entry under review: Cc1cc(Br)cnc1CCCCNC1=NS(=O)N=C1NCc1cccnc1 (stereo not given) . Reported melting point? 179 to 180 °C

Input `CCOC(=O)c1cnc2c(SC(=O)N3CCN(Cc4ccc5c(c4)OCO5)CC3)cccn2c1=O` 159 to 161 °C

Another compound to check: `Cc1nc2ccc(S(=O)(=O)c3cccc4cnccc34)cc2nc1C` 198 to 200 °C

Repeat with `COc1cc(C=CC(=O)OCCCCBr)ccc1O` 86 to 89 °C

###

Examples of compounds with documented melting point follow.

Example entries begin here.
COc1cc2ncnc(N3CCN(C(=S)Nc4cccc(C(C)C)c4)CC3)c2cc1OC: 169 to 171 °C
CC(Oc1cccc(Oc2ccc(C(F)(F)F)cc2)c1)C(=O)OCCS(=O)Cc1ccccc1 (stereo not given): 110 to 112 °C
CNC(=NO)NCc1ccccc1: 97 to 99 °C

// returns reported melting point for input CCC1(CCCCCl)C(=O)Nc2cc(F)c(Cl)cc21 (stereo not given) 131 to 133 °C

Now consider `O=c1c2c[nH]c3ccc(F)cc3c-2nn1-c1ncccn1` . > 350 °C

###

Each entry below lists one item and its recorded melting point value.

CCCCCCCN(CCc1ccc(OC(C)(C)C(=O)O)cc1)C(=O)Nc1ccc(F)cc1: 162 to 164 °C
CCOCc1cc(COc2cc(CCC(=O)O)n(-c3ccccc3)n2)cc(Oc2ncc(C(F)(F)F)cc2Cl)c1: 124 to 128 °C
O=C1c2ccccc2C(=O)c2c1oc1cc(O)ccc21: > 310 °C
CCOC(=O)c1sc2c(c1OC(C)=O)CN(Cc1ccccc1Cl)CC2: 110 °C
CN(C)c1ncc2c(=O)n(Cc3ccccn3)sc2n1: 145 to 146 °C

Look up melting point: `O=Cc1ccc(-c2cnco2)[nH]1` 152 to 153 °C

Same thing, different compound: `CCCCc1nc(=O)c2cc(-c3nnn(C(c4ccccc4)(c4ccccc4)c4ccccc4)n3)ccc2[nH]1` 182 °C

# iterate: `CCOC(=O)COc1ccc(SCc2ccc3nc(-c4ccc(C(F)(F)F)cc4)sc3c2)cc1C` 176 to 177 °C

Then `O=C(c1ccccc1)N1CCc2c(c(=O)[nH]c3ccccc23)C1` ? 275 to 277 °C

###

Recorded metric: melting point

Recorded results for 10 compounds are shown here.
CC(C)(C)C(=O)c1ccc(C2(C)OCCO2)cc1: 75 to 82 °C
CCCN(CCN1CCN(C(=O)c2ccc3[nH]ccc3c2)CC1)C1CCc2ccc(O)cc2C1 (stereo not given): 194 to 199 °C
CCOc1ccc([N+](=O)[O-])cc1-c1nc2cccnc2c(=O)[nH]1: 251 to 254 °C
Cc1nc(N2C(=O)N(Cc3ccc(C(F)(F)F)cc3)CC2O)sc1C(=O)NCc1cccnc1 (stereo not given): 171 to 172 °C
COc1ccc(CN2CC(=O)Nc3ccc(OC)cc3C2=O)c(OC)c1: 196 °C
Cc1cc(C)c2cccc(OCc3c(Cl)ccc(S(=O)(=O)N4CCC[C@H]4C(=O)N4CCN(S(=O)(=O)c5ccc(C#N)cc5)CC4)c3Cl)c2n1: 156 to 158 °C
CCN(CC)c1ccc2nc3c4ccccc4c(=Nc4ncc(Cl)cc4Cl)cc-3oc2c1: 192 to 193 °C
O=S(=O)(N[C@H](Cc1ccc(C(F)(F)F)cc1)[C@@H](O)c1ccc(F)cc1)c1cccc2ccccc12 (racemic): 176 to 177 °C
CCCNC(=O)C(Cc1ccc2c(c1)c(Cc1ccc(C(=O)OC)cc1OC)cn2CCC)C(C)C (stereo not given): 123 to 125 °C
COc1cccc(-c2cc(C(=O)NCCCCCCCCc3ccccc3)cc(-c3cccc(OC)c3OCC(=O)O)c2)c1: 67.3 to 68.7 °C

Consider now this further compound.
What does the record list as melting point for O=C1Nc2c(Cl)cccc2C1(O)c1ccccc1 (stereo not given) ? 154 to 156 °C

###

Recorded metric: melting point

A selection of reference data follows.
CCN(CC)c1ccc(C(c2ccc(N(C)C)cc2C(=O)O)c2ccc(N(C)C)cc2N(C)C)cc1 (stereo not given): 128 to 130 °C
CCOC(=O)c1c(CCCn2ccnc2)nc2cc(OC)c(OC)cc2c1-c1ccc(OC)c(OC)c1: 164 to 165 °C
CN(C)c1ccc(S(=O)c2ccccc2)cc1[N+](=O)[O-] (stereo not given): 125 to 126 °C
c1ccc(-c2cccc3c2CCN(Cc2c[nH]c4ncccc24)C3)cc1: 202 to 204 °C
Cn1nc(-c2c(F)cccc2Cl)nc1-c1ccc(COc2ccc(C(F)(F)F)cc2Cl)c(Cl)c1: 113 to 114 °C

Could you tell me which melting point is on file for `CCC(C)(C)c1ccc2nc(-c3ccc([N+](=O)[O-])cc3)oc2c1` ? 147 to 148 °C

Here is the next molecule: `FC(F)(F)c1ccnc(Oc2ccc(CCNc3ncnc4nccnc34)cc2)c1` 147 to 149 °C

Try CCCN(CCC)C(=O)C(CO)Nc1nc(-c2ccccc2)nc2c1CCCC2 (stereo not given) next. 119 to 120 °C

Same thing, different molecule: `C[C@H](NC(=O)OC(C)(C)C)C(=O)N1CCC[C@H]1C(=O)N1CCC[C@H]1C(=O)OCc1ccccc1` 143 to 145 °C

###

Items are presented alongside their recorded melting point.

Completed entries (count: 3):
CSc1ccc(-c2cc(-c3nc4ccccc4c(=O)n3-c3ccc(C)cc3)sc2N2CCOCC2)cc1: 238 to 240 °C
COc1ccc(-c2c3c(c(O)c4cc(OC)c(OC)c(OC)c24)C(=O)CCC3)cc1OC: 164 to 166 °C
COc1cccc2oc(Cn3nc(-c4ccc(OC(C)C)c(F)c4)c4c(N)ncnc43)c(-c3cccc(F)c3)c(=O)c12: 145 to 148 °C

Here is another molecule to look at.
Dear colleague, I am looking for the recorded melting point of the following molecule: CC(N(C(=O)c1ccc(C(F)(F)F)cc1)[C@H](C)C(=O)O)[C@](O)(Cn1cncn1)c1ccc(F)cc1F (mixture of isomers) 219 to 221 °C

###

Items are presented alongside their recorded melting point.

Examples with answers:
C=Cc1c(N)nc(-c2ccc(C)cc2)nc1C(=O)OC: 122 to 123 °C
Cn1cc(-c2cc(-c3ccc(N)nc3)ccn2)n(-c2ccc(C(C)(C)C#N)cc2)c1=O: 252 °C
CCOc1ccccc1-c1oc2c(C(=O)OCCO)cccc2c(=O)c1C: 143 to 144 °C
CCC(Oc1cnc(Cl)c(Cl)c1)C(=O)NC(C)(C)C#CCO (stereo unspecified): 129 to 131 °C
Brc1cnc2c(Br)cncc2c1: 186 to 188 °C

Need melting point, item `COc1ccc([N+](=O)[O-])c(Oc2cc(C)[nH]n2)n1` 133 to 136 °C

Please answer likewise for `COC1=Nc2ccc(Cl)cc2N(c2ccccc2)C(=O)C1` 136 to 138 °C

Proceed to `NC(=O)Nc1ccc(/C=C/C(=O)O)cc1` > 350 °C

Query `CC(=O)Nc1ccc2c(c1)c(C1=C(c3cn(C)c4ccccc34)C(=O)NC1=O)cn2C` next 276 to 279 °C

Continue with `O=C(Nc1ccccc1)c1cccc(Oc2ccccc2)c1` 111 to 112 °C

Param item: `COc1cc2c(cc1OC)CN(CCc1ccc(NC(=O)c3cccc4c(=O)c5cccc(F)c5[nH]c34)cc1)CC2` 212 °C

Lookup CCOC(=O)c1cnc2ccc(OCC)nc2c1Nc1ccc(OCC(O)CO)cc1 (stereo unspecified) 143 to 145 °C

And then `Cc1ccc(O)c(-c2nc(-c3cc(C)ccc3O)n(-c3ccc(C(=O)O)cc3)n2)c1` , what is it? 268 to 269 °C

Again, but for `CCC(=O)N[C@@H](C)C(=O)N[C@@H](C)C(=O)NC1CCCCC1` 299 to 300 °C
